Test System: T1, recombinant His-tagged tenascin-C C domain (TNC-C)
T1 construct: 112 amino acids, expressed in E. coli from pET28a+ with N-terminal His-tag
T1 chain: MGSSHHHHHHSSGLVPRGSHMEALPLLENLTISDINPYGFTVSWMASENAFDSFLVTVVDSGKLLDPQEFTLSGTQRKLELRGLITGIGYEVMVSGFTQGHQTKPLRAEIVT
Assay Info: T7 peptide phage binding to recombinant TNC-C, fold over control heptaglycine phage
Response key: class 1 means TNC-C binding (fold G7 control phage) >= 4000 fold; class 0 means TNC-C binding (fold G7 control phage) < 4000 fold.

* AGRGRLVRAKLAAALE [TNC-C-selected peptide phage clone 5, AGRGRLVRAKLAAALE] | class 1
* CSRRGILRAKPAAALE [TNC-C-selected peptide phage clone 4, CSRRGILRAKPAAALE] | class 1
* RGRLVRA [TNC-C-selected peptide phage clone 45, RGRLVRA] | class 0
* RGRLRRVE [TNC-C-selected peptide phage clone 44 (Seq ID No. 37)] | class 0
* RRLVRVA [TNC-C-selected peptide phage clone 35, RRLVRVA] | class 0

query: Is the recorded value of TNC-C binding (fold G7 control phage) equal to or greater than 4000 fold for this binder? GRLTRVR [TNC-C-selected peptide phage clone 46, GRLTRVR]
result: class 0

query: Is the recorded value of TNC-C binding (fold G7 control phage) equal to or greater than 4000 fold for this binder? VGRVRFSRKLAAALE [TNC-C-selected peptide phage clone 30, VGRVRFSRKLAAALE]
result: class 0
